Molecular target: T1, extracellular domain of the human leptin receptor (human, UniProt P48357 22-839)
T1 construct: extracellular domain; It is treated as one construct; a tag is not mentioned for the ELISA and cross-linking experiments; also called hECD; recombinant leptin receptor extracellular domain
T1 sequence (looked up): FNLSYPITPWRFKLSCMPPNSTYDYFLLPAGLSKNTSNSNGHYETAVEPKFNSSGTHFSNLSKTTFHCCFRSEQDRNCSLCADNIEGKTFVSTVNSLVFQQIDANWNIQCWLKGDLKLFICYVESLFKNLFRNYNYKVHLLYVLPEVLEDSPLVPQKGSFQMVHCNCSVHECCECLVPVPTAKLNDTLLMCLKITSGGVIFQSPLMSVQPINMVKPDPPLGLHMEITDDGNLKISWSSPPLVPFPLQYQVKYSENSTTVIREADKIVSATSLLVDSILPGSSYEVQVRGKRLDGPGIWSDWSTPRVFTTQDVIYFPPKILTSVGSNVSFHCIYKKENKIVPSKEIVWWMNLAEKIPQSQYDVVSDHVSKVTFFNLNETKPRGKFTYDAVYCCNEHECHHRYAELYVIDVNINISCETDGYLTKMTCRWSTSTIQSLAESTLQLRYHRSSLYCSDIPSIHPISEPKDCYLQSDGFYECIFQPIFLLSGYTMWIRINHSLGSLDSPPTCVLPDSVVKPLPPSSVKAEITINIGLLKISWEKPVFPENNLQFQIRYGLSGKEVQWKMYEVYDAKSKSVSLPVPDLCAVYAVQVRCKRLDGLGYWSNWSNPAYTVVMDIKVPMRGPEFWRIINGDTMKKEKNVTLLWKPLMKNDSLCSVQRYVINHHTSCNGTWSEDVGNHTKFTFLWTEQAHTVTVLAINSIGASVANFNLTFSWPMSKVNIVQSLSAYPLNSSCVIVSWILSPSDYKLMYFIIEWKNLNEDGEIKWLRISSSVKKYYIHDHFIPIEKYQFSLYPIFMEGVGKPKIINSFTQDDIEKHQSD
Experiment: SPR; leptin receptor ECD immobilized, antibody as analyte
// reported koff for each item listed
Lab book: enter the figure in s⁻¹, no units written.

| BINDER | koff, s⁻¹ |
| --- | --- |
| S2H6 (antibody, V domains shown, also called SC2H6) VH: QVQLLQSGGGVVQPGRSLRLSCAASGFTFSSYGMHWVRQAPGKGLEWVAVISYDGSNKYYADSVKGRFTISRDNSKNTLYLQMNSLRAEDTAVYYCASFQENYFTYWGQGTLVTVSS VL: EIVLTQSPGTLSLSPGERATLSCRASQSVSSNYLAWYQQKPGQAPRLLIYGASSRPTGIPDRFSGSGSGTDFTLTISRLEPEDFAVYYCQQYAASPLTFGGGTKLEIK | 0.000308 |

With those in mind, consider the next binder.
Using the record for S2H2 (antibody, V domains shown, also called SC2H2; 52H2) VH: QVQLLQSGGGVVQPGRSLRLSCAASGFTFSSYGMHWVRQAPGKGLEWVAVISYDGSNKYYADSVKGRFTISRDNSKNTLYLQMNSLRAEDTAVYYCATFRENYFEYWGQGTLVTVSS VL: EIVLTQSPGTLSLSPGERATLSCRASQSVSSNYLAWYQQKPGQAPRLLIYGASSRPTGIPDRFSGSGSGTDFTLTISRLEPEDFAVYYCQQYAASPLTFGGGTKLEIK , report its koff.
0.000119
